This collection of values is drawn from patent US20160002204A1.

biological target: GLS1 (purified recombinant human GAC) (Homo sapiens, UniProt O94925); assay: GLS1 enzymatic activity assay (dual-coupled, Amplex UltraRed/resorufin)
Sequence (O94925 55-598 isoform O94925-3 limits assumed): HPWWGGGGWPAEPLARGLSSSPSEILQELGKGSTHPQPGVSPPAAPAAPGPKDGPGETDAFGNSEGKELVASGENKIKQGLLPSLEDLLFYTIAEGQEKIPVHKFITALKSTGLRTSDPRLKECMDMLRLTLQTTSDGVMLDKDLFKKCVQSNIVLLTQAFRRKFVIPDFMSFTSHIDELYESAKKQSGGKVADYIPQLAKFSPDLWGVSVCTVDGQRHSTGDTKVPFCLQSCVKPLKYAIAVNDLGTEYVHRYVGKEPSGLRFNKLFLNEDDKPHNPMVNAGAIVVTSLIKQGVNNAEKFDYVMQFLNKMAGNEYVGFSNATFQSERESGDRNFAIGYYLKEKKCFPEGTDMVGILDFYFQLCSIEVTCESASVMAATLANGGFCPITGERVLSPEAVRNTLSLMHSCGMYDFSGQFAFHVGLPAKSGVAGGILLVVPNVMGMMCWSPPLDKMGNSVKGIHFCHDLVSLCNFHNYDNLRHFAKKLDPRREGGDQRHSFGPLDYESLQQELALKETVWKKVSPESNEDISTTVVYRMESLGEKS
outcome_measure: IC50

Sample answers from the record:
> print(dat)
                                   compound  endpoint.value
1  O=C(NCc1cccc(OC(F)(F)F)c1)c1cn(CC(F)CCn2ccc(COc3cccc(F)c3)cc2=O)nn1 (stereo not shown)        < 100 nM
2  O=C(CC1CCC1)Nc1ccn(CCC(F)Cn2cc(C(=O)NCc3cccc(C(F)(F)F)n3)nn2)c(=O)c1F (stereo not shown)        < 100 nM
3  O=C(Cc1cccs1)Nc1ccn(CCCCn2cc(C(=O)NCc3cccc(OC(F)(F)F)c3)nn2)c(=O)c1        < 100 nM

Inquiry: What IC50 value was documented for this compound, O=C(Nc1ccn(CCC(F)Cn2cc(C(=O)NCc3cc(OC(F)(F)F)ccc3F)nn2)c(=O)c1F)C(=O)N1CCCCC1 (stereo not shown) ?
Reply text: < 100 nM

Inquiry: I have this compound here, Cn1cc(CC(=O)Nc2ccn(CCCCn3cc(C(=O)NCc4cccc(OC(F)(F)F)c4)nn3)c(=O)c2)cn1 , and I need its recorded IC50.
Reply text: 100 to 500 nM

Inquiry: So what does the record say about IC50 for O=C(NCc1ccccc1)c1ccn(CCCn2cc(C(=O)NCc3cccc(OC(F)(F)F)c3)nn2)c(=O)c1 ?
Reply text: > 5000 nM

Inquiry: I'd like to know its IC50. The compound in question is O=C(Nc1ccn(CCC(F)Cn2cc(C(=O)NCc3cccc(OC(F)(F)F)c3)nn2)c(=O)c1F)OC1CCC1 (stereo not shown)
Reply text: < 100 nM

Inquiry: # input compound: O=C(CC1CCC1)Nc1ccn(CCC(F)Cn2cc(C(=O)NCc3cccc(OC(F)(F)F)c3)nn2)c(=O)c1 (stereo not shown) ; wanted: its IC50
Reply text: < 100 nM

Inquiry: Please give the measured IC50 for this compound: O=C(Cc1cccc(OC(F)(F)F)c1)Nc1ccc(CCCCn2ccc(NC(=O)OC3CCOCC3)nc2=O)nn1
Reply text: < 100 nM

Inquiry: Value lookup for IC50; key = O=C(Cc1ccccc1)Nc1ccc(CCCCn2ccc(NC(=O)NC3CCCCC3)nc2=O)nn1
Reply text: 100 to 500 nM

Inquiry: I have this compound here, O=C(CC1CCCC1)Nc1ccn(CCC(F)Cn2cc(C(=O)NCc3cccc(C(F)(F)F)n3)nn2)c(=O)c1F (stereo not shown) , and I need its recorded IC50.
Reply text: < 100 nM

Inquiry: Fill in: IC50 of O=C(CC1CCCCC1)Nc1ccn(CCCCn2cc(C(=O)NCc3cccc(OC(F)(F)F)c3)nn2)c(=O)c1 is ___
Reply text: < 100 nM

Inquiry: Recorded IC50 for CC(C)COC(=O)Nc1ccn(CCCCn2cc(C(=O)NCc3cccc(OC(F)(F)F)c3)nn2)c(=O)c1 , please?
Reply text: < 100 nM

Inquiry: // lookup IC50 for Cc1ccc(CNC(=O)c2cn(C[C@@H](F)CCn3ccc(NC(=O)Cc4ccccc4)c(F)c3=O)nn2)cn1
Reply text: 100 to 500 nM

Inquiry: Fill in: IC50 of O=C(Cc1ccccc1)Nc1ccn(CC(F)CCn2cc(C(=O)NCc3cc(C(F)(F)F)ccn3)nn2)c(=O)c1 (stereo not shown) is ___
Reply text: < 100 nM

Inquiry: Please report the recorded IC50 for CC(C)(C)OC(=O)N1CCC(CC(=O)Nc2ccn(CCC(F)Cn3cc(C(=O)NCc4cccc(OC(F)(F)F)c4)nn3)c(=O)c2F)CC1 (stereo not shown) .
Reply text: < 100 nM

Inquiry: Reported IC50, compound Cc1ccc(CNC(=O)c2nnc(CCCCn3ccc(NC(=O)CN4CCCCC4)c(F)c3=O)s2)cn1 : ____
Reply text: 100 to 500 nM

Inquiry: Query: IC50; subject: O=C(Cc1ccccc1)Nc1ccn(CCCCc2ccc(NC(=O)Cc3cccc(OC(F)(F)F)c3)nn2)c(=O)c1
Reply text: < 100 nM

Inquiry: Suppose we examine the compound O=C(Cc1ccccc1)Nc1ccn(CC(F)CCn2cc(C(=O)NCc3cc(Br)ccn3)nn2)c(=O)c1 (stereo not shown) ; what IC50 value has been reported?
Reply text: < 100 nM

Inquiry: Query: IC50; subject: O=C(Nc1ccn(CCC(F)Cn2cc(C(=O)NCc3cccc(OC(F)(F)F)c3)nn2)c(=O)c1F)OC1CCCCC1 (stereo not shown)
Reply text: < 100 nM

Inquiry: Any idea what IC50 was measured for O=C(CC1CC1)Nc1ccn(CCCCn2cc(C(=O)NCc3cccc(C(F)(F)F)c3)nn2)c(=O)c1 ?
Reply text: < 100 nM

Inquiry: IC50 lookup needed for O=C(CC1CCCCC1)Nc1ccn(CCC(F)Cn2cc(C(=O)NCc3cccc(OC(F)(F)F)c3)nn2)c(=O)c1 (stereo not shown) , thanks.
Reply text: < 100 nM

Inquiry: Report IC50 for O=C(NCc1cc(C(F)(F)F)ccn1)c1cn(CC(F)CCn2ccc(NC(=O)[C@@H](O)c3ccccc3)c(F)c2=O)nn1 (stereo partly shown) please.
Reply text: < 100 nM

Inquiry: Which IC50 value is on record for O=C1CCC(CC(=O)Nc2ccn(CCCCn3cc(C(=O)NCc4cccc(OC(F)(F)F)c4)nn3)c(=O)c2)CC1 ?
Reply text: < 100 nM

Inquiry: Would you kindly share the measured IC50 for Nc1ccn(CCC(F)Cn2cc(C(=O)NCc3ccc(C(F)(F)F)nc3)nn2)c(=O)c1F (stereo not shown) ?
Reply text: > 5000 nM
